Values compiled from patent US20230128889A1.

target: RelTt^NTD-APCPP complex (Thermus thermophilus, UniProt Q5SHL3); assay: ITC, titration into RelTt^NTD-APCPP complex
Sequence (Q5SHL3 entry or part of it, one chain of several): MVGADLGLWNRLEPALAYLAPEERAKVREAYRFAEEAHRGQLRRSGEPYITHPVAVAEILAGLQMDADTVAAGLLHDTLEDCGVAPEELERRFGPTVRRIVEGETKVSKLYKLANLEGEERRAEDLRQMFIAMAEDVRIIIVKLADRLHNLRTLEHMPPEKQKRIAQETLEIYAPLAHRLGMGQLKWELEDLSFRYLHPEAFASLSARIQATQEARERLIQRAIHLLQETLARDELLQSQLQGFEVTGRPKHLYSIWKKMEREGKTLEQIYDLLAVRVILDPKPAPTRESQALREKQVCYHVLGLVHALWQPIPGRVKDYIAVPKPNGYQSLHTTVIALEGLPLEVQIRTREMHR
quantityMeasured: pKd
Scale note: pKd = -log10(concentration in M).

Summary line: Nc1nc2c(ncn2[C@@H]2O[C@H](COP(=O)(O)OP(=O)(O)O)[C@@H](O)[C@H]2O)c(=O)[nH]1 , RelTt^NTD-APCPP complex (Thermus thermophilus, UniProt Q5SHL3), reported pKd = 4.61

---

test system: Rel hydrolase (HD); assay: Inhibition of Rel hydrolase activity: decrease of radioactive (p)ppGpp spot on TLC; format: biochemical; conditions: radioactive (p)ppGpp incubated with enzyme, with vs without compound
quantityMeasured: HD (inhibition of the hydrolase activity)

Measured HD (inhibition of the hydrolase activity) of O=C(O)C1Cc2ccccc2CN1C(=O)Cn1nnc2ccccc21 (stereo not drawn) : Yes

The reported value for O=C(O)c1cc(NS(=O)(=O)c2ccc3c4c(cccc24)C(=O)N3)cnc1Cl in terms of HD (inhibition of the hydrolase activity) is Yes

// HD (inhibition of the hydrolase activity) value for O=C(Cc1ccc(Cl)cc1)Nc1ccc(-c2ccc(NC(=O)Cc3ccc(Cl)cc3)c(C(=O)O)c2)cc1C(=O)O : Yes

Please fill in: HD (inhibition of the hydrolase activity) reported for O=C(Nc1nnn[nH]1)c1ccc2c(Br)cccc2c1 = Yes

HD (inhibition of the hydrolase activity) in this record for Cc1c(C(=O)N(CCC(=O)O)CC2CCCO2)sc2ncn(C)c(=O)c12 (stereo not drawn) : Yes

More entries:
// field: HD (inhibition of the hydrolase activity); key: O=C(CC(C(=O)O)C1CCCO1)NCCc1ccc2c(c1)OCO2 (stereo not drawn) ; value = yes

Record summary for O=C(Nc1ccc(-n2cnc3ccccc32)nc1)c1ccc([N+](=O)[O-])o1 : reported HD (inhibition of the hydrolase activity) = Yes

Notebook: COc1ccc(-c2cc3ccc(OCc4nnn[nH]4)cc3oc2=O)cc1 , HD (inhibition of the hydrolase activity) read as No

---

Tested on: Rel synthetase (ST)
Experiment: Inhibition of Rel synthetase activity: (p)ppGpp production from GDP or GTP and radioactive ATP, TLC
Format: biochemical
Conditions: enzyme with GDP or GTP and radioactive ATP, absence or presence of compound
Protocol: As indicated above, the “Yes/No” in the 5th and 6th columns of TABLES A to F indicates whether there is, or respectively is not an inhibition of the synthetase (ST) and/or hydrolase (HD) activity. […] The action of a candidate compound is evaluated based on its effect on the production of (p)ppGpp. […]
quantityMeasured: ST (inhibition of the synthetase activity)

Sample answers from the record:
The reported ST (inhibition of the synthetase activity) of the compound O=C(O)C[C@H](NC(=O)COc1ccc2nc3n(c(=O)c2c1)CCC3)C(=O)O was no

ST (inhibition of the synthetase activity) in this record for Cc1c(Cc2ccccc2)c(=O)oc2cc(OCc3ccc(C(=O)O)cc3)ccc12 : Yes

Sample Cc1nc2cc(CC(=O)N[C@@H]3COCC[C@@H]3OCC(=O)O)ccc2[nH]1 ; ST (inhibition of the synthetase activity) observed: No

Recorded result, COc1ccc2[nH]cc(CCNC(=O)c3nccnc3C(=O)O)c2c1 , ST (inhibition of the synthetase activity): No

ST (inhibition of the synthetase activity) for O=C(O)Cn1cc(/C=C2/C(=O)Nc3ccccc32)c2ccccc21 is Yes

***
Recorded result, Cc1c(Br)c([N+](=O)[O-])nn1CC(=O)Nc1ccc(Cl)cc1Cl , ST (inhibition of the synthetase activity): Yes

ST (inhibition of the synthetase activity) reading for O=C(Nc1ccc(-n2cnc3ccccc32)nc1)c1ccc([N+](=O)[O-])o1 : Yes

The compound identified as O=C(O)CCC(=Cc1ccc(OCC(=O)O)cc1)c1nc2ccccc2s1 registered its ST (inhibition of the synthetase activity) at Yes

// field: ST (inhibition of the synthetase activity); key: Cc1ccc(Nc2nc(N/N=C/c3cc(Cl)ccc3O)nc(Nc3ccc([N+](=O)[O-])cc3)n2)cc1C ; value = Yes
